Please respond with reported IC50, cytotoxic effect on A172 cells (CellTiter-Glo, 72 h) for every item in the list.
Molecular target: TRAILR2 receptor on the surface of human tumor cells (human, UniProt O14763 56-440)
Assay: cell-based or functional assay
The figure you give is taken to be in ng/mL; do not add the unit.

Please give the measured IC50, cytotoxic effect on A172 cells (CellTiter-Glo, 72 h) for this binder: Zapadcine-3d (antibody, V domains shown, MMAE coupled through linker MC by thiol conventional coupling, non-cleavable; positions not given) VH: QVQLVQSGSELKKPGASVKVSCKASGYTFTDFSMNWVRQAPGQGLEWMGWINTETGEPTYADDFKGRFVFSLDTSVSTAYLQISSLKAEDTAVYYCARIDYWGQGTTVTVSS VL: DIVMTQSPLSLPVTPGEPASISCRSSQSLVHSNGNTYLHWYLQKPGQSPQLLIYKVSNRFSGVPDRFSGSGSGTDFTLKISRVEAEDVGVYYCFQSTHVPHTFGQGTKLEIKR
308

Look up IC50, cytotoxic effect on A172 cells (CellTiter-Glo, 72 h) for this binder: Zapadcine-3c (antibody, V domains shown, MMAE coupled through linker MC-VC-PAB by thiol conventional coupling, cleavable; positions not given) VH: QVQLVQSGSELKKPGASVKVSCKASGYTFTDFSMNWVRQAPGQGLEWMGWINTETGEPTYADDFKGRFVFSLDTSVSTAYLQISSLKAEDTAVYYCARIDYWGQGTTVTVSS VL: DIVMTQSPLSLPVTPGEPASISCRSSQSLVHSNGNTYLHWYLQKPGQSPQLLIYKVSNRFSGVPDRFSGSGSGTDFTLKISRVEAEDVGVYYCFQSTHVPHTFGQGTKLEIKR
703

Give the measured IC50, cytotoxic effect on A172 cells (CellTiter-Glo, 72 h) of Zapadcine-3b (antibody, V domains shown, MMAE coupled through linker PY-MAA by thiol bridge coupling, non-cleavable; positions not given) VH: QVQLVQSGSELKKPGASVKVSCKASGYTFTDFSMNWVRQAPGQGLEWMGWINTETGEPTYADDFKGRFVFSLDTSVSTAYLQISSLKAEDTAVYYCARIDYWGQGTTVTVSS VL: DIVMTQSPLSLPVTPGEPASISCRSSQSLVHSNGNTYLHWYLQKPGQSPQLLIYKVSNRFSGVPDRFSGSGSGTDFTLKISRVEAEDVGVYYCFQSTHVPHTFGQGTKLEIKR .
389

Which measured IC50, cytotoxic effect on A172 cells (CellTiter-Glo, 72 h) value corresponds to Zapadcine-3a (antibody, V domains shown, MMAE coupled through linker PY-VC-PAB by thiol bridge coupling, cleavable; positions not given) VH: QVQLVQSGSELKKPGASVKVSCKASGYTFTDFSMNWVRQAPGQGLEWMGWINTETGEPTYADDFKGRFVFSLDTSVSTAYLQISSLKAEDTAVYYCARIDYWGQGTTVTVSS VL: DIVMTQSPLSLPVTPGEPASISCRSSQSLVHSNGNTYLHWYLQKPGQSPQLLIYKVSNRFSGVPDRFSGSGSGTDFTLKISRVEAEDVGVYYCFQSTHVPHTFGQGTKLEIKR ?
225
